Biological target: T1, pm2 (sulfated tyrosine(s) among Y15, Y16, Y17; which ones is not told (the underlining of Table 1 is lost in the text))
T1 construct: also called sulfated CCR8 N-terminal peptide pm2
T1 sequence (peptide, as listed by the source): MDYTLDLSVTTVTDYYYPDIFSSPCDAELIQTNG
Assay: ELISA on coated peptide [cont.]

Binder | binding result
anti-CCR8 mAb 1-3 (antibody, V domains shown, Murine hybridoma mAb) VH: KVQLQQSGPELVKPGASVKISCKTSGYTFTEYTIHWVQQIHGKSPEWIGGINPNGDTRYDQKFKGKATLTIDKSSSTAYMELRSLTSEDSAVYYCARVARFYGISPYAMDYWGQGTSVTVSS VL: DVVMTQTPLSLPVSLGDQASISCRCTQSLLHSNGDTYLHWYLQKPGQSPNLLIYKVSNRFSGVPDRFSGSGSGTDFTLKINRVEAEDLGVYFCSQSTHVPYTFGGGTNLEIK | binds
anti-CCR8 mAb 1-5 (antibody, V domains shown, Murine hybridoma mAb) VH: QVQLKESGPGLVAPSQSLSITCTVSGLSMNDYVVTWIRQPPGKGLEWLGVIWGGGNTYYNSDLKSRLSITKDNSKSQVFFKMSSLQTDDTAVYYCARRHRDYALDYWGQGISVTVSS VL: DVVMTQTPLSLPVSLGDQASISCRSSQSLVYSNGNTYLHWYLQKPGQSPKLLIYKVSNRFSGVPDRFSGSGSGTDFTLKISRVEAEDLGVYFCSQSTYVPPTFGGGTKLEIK | binds
anti-CCR8 mAb 1-23 (antibody, human IgG1, kappa, V domains shown, Humanized mAb, human IgG1 / kappa) VH: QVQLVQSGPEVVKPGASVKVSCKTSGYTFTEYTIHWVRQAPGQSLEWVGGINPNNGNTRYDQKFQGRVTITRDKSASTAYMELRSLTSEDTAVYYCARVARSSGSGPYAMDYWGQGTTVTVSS VL: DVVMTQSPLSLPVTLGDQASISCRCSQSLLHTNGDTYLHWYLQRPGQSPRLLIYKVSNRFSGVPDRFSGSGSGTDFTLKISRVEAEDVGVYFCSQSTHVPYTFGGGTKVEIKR | binds

Source listed as patent US20260132208A1.
